- Assay Target: Histone deacetylase 11 (Homo sapiens) (UniProt Q96DB2)
- Sequence (Q96DB2 whole entry): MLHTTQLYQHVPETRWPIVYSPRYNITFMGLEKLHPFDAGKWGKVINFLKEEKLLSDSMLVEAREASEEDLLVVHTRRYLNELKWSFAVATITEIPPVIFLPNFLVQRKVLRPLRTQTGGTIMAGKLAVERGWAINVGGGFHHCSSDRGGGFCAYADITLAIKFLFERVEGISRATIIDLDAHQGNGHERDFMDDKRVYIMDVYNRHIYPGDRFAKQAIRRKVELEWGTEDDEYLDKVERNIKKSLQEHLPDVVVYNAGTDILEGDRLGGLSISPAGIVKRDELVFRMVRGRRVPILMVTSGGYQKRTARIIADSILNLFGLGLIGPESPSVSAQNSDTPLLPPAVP
- Run Description: Inhibition of recombinant C-terminal His-tagged HDAC11 (unknown origin) expressed in baculovirus infected Sf9 cells at 2 uM using Ac-Arg-Gly-Lys(Ac)-AMC as substrate pretreated for 3 hrs followed by substrate addition after 30 mins in presence of 0.2 uM SAHA by fluorometric method relative to control
Experimental Readout: inhibition (%)

A = Nc1ccccc1NC(=O)/C=C/c1cn([C@H]2C[C@@H](CO)N(Cc3ccccc3)C2)nn1
B = Nc1ccccc1NC(=O)/C=C/c1cn([C@H]2C[C@H](CO)N(Cc3ccccc3)C2)nn1
Task item: Two entries are listed, A and B . Which one carries the higher inhibition? Mark your selection by writing its label.
Reply: A
(A: 36%, B: 14%)

----------
- Assay Target: Histone deacetylase 11 (Homo sapiens)
- Run Description: Inhibition of recombinant C-terminal His-tagged HDAC11 (unknown origin) expressed in baculovirus infected Sf9 cells using Ac-Arg-Gly-Lys(Ac)-AMC as substrate pretreated for 3 hrs followed by substrate addition after 30 mins in presence of 0.2 uM SAHA by fluorometric method
Experimental Readout: IC50 (nM)
Your answer should be a plain number; it is taken to be in nM.

Data point: Nc1ccccc1NC(=O)c1ccc(CNC(=O)OCc2cccnc2)cc1 [ENTINOSTAT] ; IC50 = 1300

----------
- Assay Target: Histone deacetylase 11 (Homo sapiens)
- Run Description: Inhibition of recombinant C-terminal His-tagged HDAC11 (unknown origin) expressed in baculovirus infected Sf9 cells at 2 uM using Ac-Arg-Gly-Lys(Ac)-AMC as substrate pretreated for 3 hrs followed by substrate addition after 30 mins in presence of 0.2 uM SAHA by fluorometric method relative to control
Experimental Readout: inhibition (%)

Past entries and their recorded results:
1) Nc1ccccc1NC(=O)/C=C/c1cn([C@@H]2C[C@@H](CO)N(CCCc3ccccc3)C2)nn1
13
2) Nc1ccccc1NC(=O)/C=C/c1cn([C@@H]2C[C@@H](CO)N(Cc3ccccc3)C2)nn1
22
3) Nc1ccccc1NC(=O)/C=C/c1cn([C@@H]2C[C@H](CO)N(CCCc3ccccc3)C2)nn1
12
4) Nc1ccccc1NC(=O)/C=C/c1cn([C@H]2C[C@@H](CO)N(CCCc3ccccc3)C2)nn1
19
5) Nc1ccccc1NC(=O)/C=C/c1cn([C@H]2C[C@H](CO)N(CCCc3ccccc3)C2)nn1
16

A = Nc1ccccc1NC(=O)/C=C/c1cn([C@@H]2C[C@H](CO)N(Cc3ccccc3)C2)nn1
B = Nc1ccccc1NC(=O)/C=C/c1cn([C@H]2C[C@@H](CO)N(CCc3ccccc3)C2)nn1
C = Nc1ccccc1NC(=O)c1ccc(CNC(=O)OCc2cccnc2)cc1
Task item: Sort these compounds on inhibition so the largest reading comes first. Field: ranking. Enter the labels in the order requested.
Reply: C, B, A
(C: 59%, B: 20%, A: 14%)

----------
- Assay Target: Histone deacetylase 11 (Homo sapiens) (UniProt Q96DB2)
- Run Description: Inhibition of recombinant C-terminal His-tagged HDAC11 (unknown origin) expressed in baculovirus infected Sf9 cells at 2 uM using Ac-Arg-Gly-Lys(Ac)-AMC as substrate pretreated for 3 hrs followed by substrate addition after 30 mins by fluorometric method relative to control
Experimental Readout: inhibition

Measured inhibition, `Nc1ccccc1NC(=O)/C=C/c1cn([C@H]2C[C@H](C(=O)O)N(CCCc3ccccc3)C2)nn1` : < 0%

// field: inhibition; key: `Nc1ccccc1NC(=O)/C=C/c1cn([C@@H]2C[C@@H](C(=O)O)N(CCCc3ccccc3)C2)nn1` ; value = < 10%

According to the records, this molecule `Nc1ccccc1NC(=O)/C=C/c1cn([C@@H]2C[C@H](CO)N(CCc3ccccc3)C2)nn1` displays inhibition of < 0%

Lab note: measured inhibition of `Nc1ccccc1NC(=O)/C=C/c1cn([C@H]2C[C@H](CO)N(Cc3ccccc3)C2)nn1` was < 0%

----------
This section presents compounds with their documented inhibition values.
- Assay Target: UniProt:Q96DB2
- Run Description: Inhibition of recombinant C-terminal His-tagged HDAC11 (unknown origin) expressed in baculovirus infected Sf9 cells at 2 uM using Ac-Arg-Gly-Lys(Ac)-AMC as substrate pretreated for 3 hrs followed by substrate addition after 30 mins by fluorometric method relative to control

Worked examples, 5 compounds total:
1. Nc1ccccc1NC(=O)/C=C/c1cn([C@H]2C[C@@H](CO)N(CCCc3ccccc3)C2)nn1
< 0%
2. Nc1ccccc1NC(=O)/C=C/c1cn([C@H]2C[C@H](CO)N(CCc3ccccc3)C2)nn1
< 10%
3. Nc1ccccc1NC(=O)/C=C/c1cn([C@@H]2C[C@H](CO)N(Cc3ccccc3)C2)nn1
< 10%
4. Nc1ccccc1NC(=O)/C=C/c1cn([C@@H]2C[C@@H](C(=O)O)N(CCc3ccccc3)C2)nn1
< 10%
5. Nc1ccccc1NC(=O)/C=C/c1cn([C@H]2C[C@H](CO)N(CCCc3ccccc3)C2)nn1
< 10%

inhibition reading for `Nc1ccccc1NC(=O)/C=C/c1cn([C@H]2C[C@H](C(=O)O)N(CCc3ccccc3)C2)nn1` : < 0%

The reported value for `Nc1ccccc1NC(=O)/C=C/c1cn([C@@H]2C[C@H](C(=O)O)N(CCc3ccccc3)C2)nn1` in terms of inhibition is < 0%

Measured inhibition, `Nc1ccccc1NC(=O)c1ccc(CNC(=O)OCc2cccnc2)cc1` : 67%

Query `Nc1ccccc1NC(=O)/C=C/c1cn([C@H]2C[C@@H](CO)N(CCc3ccccc3)C2)nn1` yields inhibition of < 10%

----------
- Assay Target: Histone deacetylase 11 (Homo sapiens)
- Run Description: Inhibition of recombinant C-terminal His-tagged HDAC11 (unknown origin) expressed in baculovirus infected Sf9 cells at 2 uM using Ac-Arg-Gly-Lys(Ac)-AMC as substrate pretreated for 3 hrs followed by substrate addition after 30 mins by fluorometric method relative to control
Each record here notes measured inhibition.

Lookup result for `Nc1ccccc1NC(=O)/C=C/c1cn([C@H]2C[C@@H](CO)N(Cc3ccccc3)C2)nn1` ; measured inhibition: 31%

Kindly note the recorded inhibition for `Nc1ccccc1NC(=O)/C=C/c1cn([C@@H]2C[C@@H](CO)N(CCCc3ccccc3)C2)nn1` , which is < 10%

The reported inhibition of the compound `Nc1ccccc1NC(=O)/C=C/c1cn([C@H]2C[C@@H](C(=O)O)N(Cc3ccccc3)C2)nn1` was < 0%

Measured inhibition, `Nc1ccccc1NC(=O)/C=C/c1cn([C@@H]2C[C@@H](C(=O)O)N(Cc3ccccc3)C2)nn1` : < 0%

response.value for `Nc1ccccc1NC(=O)/C=C/c1cn([C@H]2C[C@@H](C(=O)O)N(CCCc3ccccc3)C2)nn1` (field: inhibition) = < 0%

GET /value?item= `Nc1ccccc1NC(=O)/C=C/c1cn([C@H]2C[C@H](C(=O)O)N(Cc3ccccc3)C2)nn1` &field=inhibition returns 12%

Reported inhibition for `Nc1ccccc1NC(=O)/C=C/c1cn([C@@H]2C[C@H](CO)N(CCCc3ccccc3)C2)nn1` was < 0%

Noted for `Nc1ccccc1NC(=O)/C=C/c1cn([C@@H]2C[C@@H](CO)N(Cc3ccccc3)C2)nn1` : its inhibition reads < 10%

What the record says about `Nc1ccccc1NC(=O)/C=C/c1cn([C@@H]2C[C@H](C(=O)O)N(CCCc3ccccc3)C2)nn1` : inhibition is < 10%

----------
- Assay Target: Histone deacetylase 11 (Homo sapiens)
- Run Description: Inhibition of recombinant C-terminal His-tagged HDAC11 (unknown origin) expressed in baculovirus infected Sf9 cells using Ac-Arg-Gly-Lys(Ac)-AMC as substrate pretreated for 3 hrs followed by substrate addition after 30 mins by fluorometric method
Experimental Readout: IC50 (nM)

I = Nc1ccccc1NC(=O)/C=C/c1cn([C@H]2C[C@@H](CO)N(Cc3ccccc3)C2)nn1
II = Nc1ccccc1NC(=O)c1ccc(CNC(=O)OCc2cccnc2)cc1
Task item: When the recorded IC50 values are compared, which is smaller: that of I or that of II ? Your answer should be the label of the entry you select.
Reply: II
(II: 900 nM, I: 2140 nM)

----------
Recorded inhibition by entry
- Assay Target: Histone deacetylase 11 (Homo sapiens) (UniProt Q96DB2)
- Run Description: Inhibition of recombinant C-terminal His-tagged HDAC11 (unknown origin) expressed in baculovirus infected Sf9 cells at 2 uM using Ac-Arg-Gly-Lys(Ac)-AMC as substrate pretreated for 3 hrs followed by substrate addition after 30 mins in presence of 0.2 uM SAHA by fluorometric method relative to control

Worked cases, inhibition given:
1) Nc1ccccc1NC(=O)/C=C/c1cn([C@H]2C[C@H](C(=O)O)N(CCCc3ccccc3)C2)nn1
< 10%
2) Nc1ccccc1NC(=O)/C=C/c1cn([C@@H]2C[C@@H](CO)N(CCc3ccccc3)C2)nn1
< 10%

Query compound follows.
For this compound ( `Nc1ccccc1NC(=O)/C=C/c1cn([C@H]2C[C@H](C(=O)O)N(Cc3ccccc3)C2)nn1` ), measured inhibition is < 10%
